target: α-glucosidase (Saccharomyces cerevisiae, UniProt P53341); construct: purchased Sigma Aldrich; experiment: Progress curves and time-dependent (slow-binding) assay; assay type: biochemical; conditions: slow-binding fit, Kiapp = k4/k3
Sequence (P53341 whole entry): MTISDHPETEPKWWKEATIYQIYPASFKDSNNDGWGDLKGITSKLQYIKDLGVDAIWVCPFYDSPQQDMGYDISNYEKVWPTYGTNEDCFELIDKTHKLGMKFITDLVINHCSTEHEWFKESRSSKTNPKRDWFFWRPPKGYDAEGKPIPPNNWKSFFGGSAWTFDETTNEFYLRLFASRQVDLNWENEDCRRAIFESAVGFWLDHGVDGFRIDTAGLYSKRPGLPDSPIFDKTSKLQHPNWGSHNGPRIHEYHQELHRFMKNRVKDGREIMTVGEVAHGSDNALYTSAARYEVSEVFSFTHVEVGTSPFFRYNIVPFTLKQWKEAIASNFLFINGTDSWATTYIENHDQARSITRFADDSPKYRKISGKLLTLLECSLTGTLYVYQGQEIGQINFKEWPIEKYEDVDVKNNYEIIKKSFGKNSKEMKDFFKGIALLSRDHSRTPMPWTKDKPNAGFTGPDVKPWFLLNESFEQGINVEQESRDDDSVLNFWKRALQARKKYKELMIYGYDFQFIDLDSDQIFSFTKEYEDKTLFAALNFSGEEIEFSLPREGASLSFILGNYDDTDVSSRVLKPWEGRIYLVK
pKi: −log10 of the molar value.

{"compound": "C=C(C)C1Cc2c(oc3cc(OC)cc(O)c3c2=O)-c2c(O)cc(O)c(O)c21 (stereo not shown)", "testedSystem": "α-glucosidase (Saccharomyces cerevisiae, UniProt P53341)", "pKi": 6.42}

====

biological target: α-glucosidase (EC3.2.1.20) (Saccharomyces cerevisiae); construct: purchased Sigma Aldrich; assay: α-Glucosidase enzyme kinetics (Lineweaver–Burk, Dixon plots, secondary plots, Yang's method); type: biochemical; details: [I] 30.0 μM, Yang's method

{"molecule": "C=C(C)[C@H]1Cc2c(oc3c4c(cc(O)c3c2=O)OC(C)(C)C=C4)-c2c(O)cc(O)c(O)c21", "Kik/Kiv": 209.3396}
{"molecule": "CC(C)=CCCC1(C)C=Cc2c(cc(O)c3c(=O)c(CC=C(C)C)c(-c4cc(O)c(O)cc4O)oc23)O1 (single isomer, unassigned; (-))", "Kik/Kiv": 3.25}
{"molecule": "CC(C)=CCc1c(-c2cc(O)c(O)cc2O)oc2c3c(cc(O)c2c1=O)OC(C)(C)C=C3", "Kik/Kiv": 1.8101}
{"molecule": "CC1(C)C=Cc2c(cc(O)c3c(=O)c4c(oc23)-c2c(O)cc(O)c3c2C(C4)C(C)(C)O3)O1 (stereo not shown)", "Kik/Kiv": 20.2662}

====

target: α-glucosidase (EC3.2.1.20) (Saccharomyces cerevisiae, UniProt P53341); construct: purchased Sigma Aldrich; experiment: biochemical; details: p-NPG substrate, 50 mM phosphate buffer pH 6.8, 37 °C; read-out: IC50
Sequence (P53341 whole entry): as above
measurementKind: IC50 (µM)

{"compound": "C=C(C)[C@H]1Cc2c(oc3c4c(cc(O)c3c2=O)OC(C)(C)C=C4)-c2c(O)cc(O)c(O)c21", "testedSystem": "α-glucosidase (EC3.2.1.20) (Saccharomyces cerevisiae, UniProt P53341)", "reportedMeasurement": 8.6}
{"compound": "C=C(C)C1Cc2c(oc3cc(OC)cc(O)c3c2=O)-c2c(O)cc(O)c(O)c21 (centres unmarked)", "testedSystem": "α-glucosidase (EC3.2.1.20) (Saccharomyces cerevisiae, UniProt P53341)", "reportedMeasurement": 7.6}
{"compound": "CC1(C)Oc2c(O)cc(O)c3c2C1Cc1c-3oc2cc(O)cc(O)c2c1=O (centres unmarked)", "testedSystem": "α-glucosidase (EC3.2.1.20) (Saccharomyces cerevisiae, UniProt P53341)", "reportedMeasurement": 25.4}
{"compound": "CC(C)=CCCC1(C)C=Cc2c(cc(O)c3c(=O)c(CC=C(C)C)c(-c4cc(O)c(O)cc4O)oc23)O1 (single isomer, unassigned; (-))", "testedSystem": "α-glucosidase (EC3.2.1.20) (Saccharomyces cerevisiae, UniProt P53341)", "reportedMeasurement": 8.8}
{"compound": "CC1(C)C=Cc2c(cc(O)c3c(=O)c4c(oc23)-c2c(O)cc(O)c3c2C(C4)C(C)(C)O3)O1 (centres unmarked)", "testedSystem": "α-glucosidase (EC3.2.1.20) (Saccharomyces cerevisiae, UniProt P53341)", "reportedMeasurement": 9.6}

====

biological target: α-glucosidase (EC3.2.1.20) (Saccharomyces cerevisiae); construct: purchased Sigma Aldrich; test: biochemical

{"recordSmiles": "CC(C)=CCc1c(-c2cc(O)c(O)cc2O)oc2c3c(cc(O)c2c1=O)OC(C)(C)C=C3", "IC50 (µM)": 16.2}
